- System: C. difficile 174
- Assay details: MIC by agar dilution against Clostridioides difficile, test strain 18
- Type: cell-based
- Conditions used: test strain 18, C. difficile 174, anaerobic, agar dilution, read-out: MIC
Would you mind telling me the reported MIC of each entry?
API: value field is a number in µg/mL; no unit string.

For C/C=C1\NC(=O)[C@H]([C@@H](C)O)NC(=O)c2csc(n2)-c2ccc(-c3nc(-c4nc(C(=O)NC5(C(=O)NCC6OB(O)c7ccccc76)CC5)cs4)cs3)nc2-c2csc(n2)[C@H]([C@@H](C)O)NC(=O)c2csc(n2)[C@H](C(C)C)NC(=O)c2csc1n2 (stereo partly drawn) [Compound 6] the compound record lists MIC as 0.06

For CN[C@H](CC(C)C)C(=O)N[C@H]1C(=O)N[C@@H](CC(N)=O)C(=O)N[C@H]2C(=O)N[C@H]3C(=O)N[C@H](C(=O)N[C@H](C(=O)O)c4cc(O)cc(O)c4-c4cc3ccc4O)[C@H](O)c3ccc(c(Cl)c3)Oc3cc2cc(c3O[C@@H]2O[C@H](CO)[C@@H](O)[C@H](O)[C@H]2O[C@H]2C[C@](C)(N)[C@H](O)[C@H](C)O2)Oc2ccc(cc2Cl)[C@H]1O [Van, Vancomycin, reference compound] the compound record lists MIC as 0.5

For C/C=C1\NC(=O)[C@H]([C@@H](C)O)NC(=O)c2csc(n2)-c2ccc(-c3nc(-c4nc(C(=O)NC5(C(=O)NCCCCB(O)O)CC5)cs4)cs3)nc2-c2csc(n2)[C@H]([C@@H](C)O)NC(=O)c2csc(n2)[C@H](C(C)C)NC(=O)c2csc1n2 [Compound 20] the compound record lists MIC as 0.25

For C/C=C1\NC(=O)[C@H]([C@@H](C)O)NC(=O)c2csc(n2)-c2ccc(-c3nc(-c4nc(C(=O)NC5(C(=O)NCCCCCB(O)O)CC5)cs4)cs3)nc2-c2csc(n2)[C@H]([C@@H](C)O)NC(=O)c2csc(n2)[C@H](C(C)C)NC(=O)c2csc1n2 [Compound 21] the compound record lists MIC as 0.25

For C/C=C(\NC(=O)c1csc(-c2csc(-c3ccc4c(n3)-c3csc(n3)[C@H]([C@@H](C)O)NC(=O)c3csc(n3)[C@H](C(C)C)NC(=O)c3csc(n3)/C(=C/C)NC(=O)[C@H]([C@@H](C)O)NC(=O)c3csc-4n3)n2)n1)C(=O)NCCn1cc([N+](=O)[O-])nc1C [Compound 41] the compound record lists MIC as 0.25

For C/C=C1\NC(=O)[C@H]([C@@H](C)O)NC(=O)c2csc(n2)-c2ccc(-c3nc(-c4nc(C(=O)NC5(C(=O)NCCCn6cc([N+](=O)[O-])cn6)CC5)cs4)cs3)nc2-c2csc(n2)[C@H]([C@@H](C)O)NC(=O)c2csc(n2)[C@H](C(C)C)NC(=O)c2csc1n2 [Compound 13] the compound record lists MIC as 0.125

Source: patent US12637478B2
